- TGT: Prostate-specific antigen (PSA) (Homo sapiens, UniProt P07288)
- Sequence (P07288 whole entry): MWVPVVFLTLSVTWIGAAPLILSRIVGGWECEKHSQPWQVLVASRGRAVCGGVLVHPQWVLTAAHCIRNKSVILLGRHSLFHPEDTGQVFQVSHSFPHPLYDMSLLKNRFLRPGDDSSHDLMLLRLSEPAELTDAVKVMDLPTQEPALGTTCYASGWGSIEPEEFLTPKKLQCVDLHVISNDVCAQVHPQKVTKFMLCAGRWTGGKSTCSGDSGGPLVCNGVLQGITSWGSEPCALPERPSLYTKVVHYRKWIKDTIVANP
- ASSAY DETAILS: Stability assessed as PSA-mediated (unknown origin) compound cleavage by measuring parent compound remaining after 48 hrs by HPLC analysis
- Type: ADME
- CONDITIONS: prostate-specific antigen (PSA) enzyme, read-out: Stability
Residues, ends and D or L forms follow the SMILES beside them. *: point of attachment. X1 = CCN(CC)C(=S)SCc1ccc(N*)cc1
MEASURED QUANTITY: remaining at 48 h (%)
The figure you give is taken to be in %; do not add the unit.

Recorded remaining at 48 h for CCN(CC)C(=S)SCc1ccc(NC(=O)[C@H](CC(C)C)NC(=O)[C@H](CO)NC(=O)[C@H](Cc2ccc(O)cc2)NC(=O)[C@H](Cc2ccc(O)cc2)NC(=O)[C@H](CO)NC(=O)[C@H](CO)NC(=O)[C@@H](N)CCCNC(=N)N)cc1 (H-RSSYYSL-X1) on Prostate-specific antigen (PSA) (Homo sapiens, UniProt P07288) was 30

Hello, the source for this data is ChEMBL document CHEMBL4627365, in case you need it.
